Tested on: Candida albicans
Conditions: Concentration 32 ug.mL-1; ASSAY_TEST Inhibition of Fungal Growth; detection method Absorption (OD530)
Description: Antifungal activity against Candida albicans ATCC 90028 (CO-ADD:FG_001); MIC in YNB media using NBS plates, by OD630
Measured potencies and affinities stand elsewhere.
endpoint name: Inhibition (%)
Please respond with the number in % and leave the unit unwritten.

For orientation, consider the following solved cases.
O=C(CSc1nnc2c(=O)n(-c3ccc(Br)cc3)ccn12)Nc1cc(F)ccc1F: 7.34
COc1ccc(N(Cc2cccc(OC)c2)S(=O)(=O)c2ccc3nnc(C)n3c2)cc1: 0.91
Cc1c(Cl)cccc1-n1ccn2c(=O)n(Cc3ccccc3Cl)nc2c1=O: -2.16

Query: Write down the reported Inhibition of CCOc1ccc(-n2ccn3c(SCC(=O)NCc4ccccc4Cl)nnc3c2=O)cc1 , test system: Candida albicans.
Reply: 2.57

Query: Next molecule up: Cc1ccc(-n2ccn3c(SC(C)C(=O)Nc4ccc5c(c4)OCCO5)nnc3c2=O)cc1C (stereo not given)
Reply: 0.29

Query: Next molecule up: Cc1oc(-c2ccc(OC(C)C)cc2)nc1CSc1nc2ccccc2n2c(C(C)C)nnc12
Reply: 23.86

Query: Next molecule up: CCCCOc1ccc(-c2cc3c4nnc(SCC(=O)Nc5c(C)cccc5CC)n4ccn3n2)cc1
Reply: -2.13

Query: Next molecule up: Cc1ccc(CNC(=O)Cn2nc3ccc(SCc4ccc(Cl)cc4)nn3c2=O)cc1
Reply: 20.24

Query: Next molecule up: CSc1cccc(NC(=O)Cn2nc3ccc(SC4CCCCC4)nn3c2=O)c1
Reply: 0.23

Query: Next molecule up: CCCCOc1ccc(-c2cc3c4nnc(SCC(=O)Nc5c(C)cccc5C)n4ccn3n2)cc1
Reply: 28.25

====

Test system: Candida albicans
Conditions: Concentration 32 ug.mL-1; ASSAY_TEST Inhibition of Fungal Growth; detection method Absorption (OD530)
Results with a measured potency or affinity are listed apart.
Recorded Inhibition for the following compounds
Please respond with the number in % and leave the unit unwritten.

For orientation, consider the following solved cases.
COC(=O)c1ccc(NC(=O)Cn2nc3c(Oc4ccccc4C)nccn3c2=O)cc1: 1.31
O=c1c2sccc2n2c(=O)n(Cc3cccc(Br)c3)nc2n1Cc1cccs1: 62.43
Cc1nnc2c(=O)n(CC(=O)Nc3ccc(C(C)C)cc3)c3ccccc3n12: 5.98
O=C(Cn1nc2c3sccc3ncn2c1=O)Nc1ccc2c(c1)OCO2: 1.42
N#CCSc1nnc2c(=O)n(-c3ccc(Br)cc3)ccn12: 1.63

Query: What Inhibition value was documented for this compound, COc1ccc(C(=O)CSc2nnc3c(=O)n(-c4ccccc4)ccn23)cc1OC ?
Reply: 25.44

Query: Next compound up: COc1ccccc1N1CCN(C(=O)Cn2nc3ccc(-c4ccc(C)c(C)c4)nn3c2=O)CC1
Reply: -0.19

Query: Next compound up: CCC(C)NC(=O)Cn1c(=O)c2nnc(C)n2c2ccccc21 (stereo unspecified)
Reply: 0.05

Query: Next compound up: O=c1n(Cc2ccc3c(c2)OCO3)nc2ccc(-c3ccccc3)nn12
Reply: 2.43

Query: Next compound up: COc1ccc(NC(=O)CSc2nc3ccccc3n3c(C(C)C)nnc23)c(OC)c1
Reply: 2.71

Query: Next compound up: COc1cc(OC)c(NC(=O)Cn2nc3c(Sc4cccc(C)c4)nccn3c2=O)cc1Cl
Reply: 47.09

Query: Next compound up: Cc1ccc(Sc2ccc3nn(CC(=O)Nc4ccc(F)c(Cl)c4)c(=O)n3n2)cc1
Reply: 6.36

Query: Next compound up: COc1cc(OC)c(NC(=O)Cn2nc3c(Oc4cccc(C)c4C)nccn3c2=O)cc1Cl
Reply: 0.16

Query: Next compound up: CCc1ccccc1Sc1nccn2c(=O)n(CC(=O)NCc3cccs3)nc12
Reply: 4.04

Query: Next compound up: CC(=O)c1cccc(NC(=O)Cn2nc3c(N4CCN(c5ccccc5C)CC4)nccn3c2=O)c1
Reply: 5.86

Query: Next compound up: Cc1ccc(NC(=O)CSc2nnc3c4cc(-c5ccccc5)nn4ccn23)c(C)c1
Reply: 4.18

Query: Next compound up: CSc1ccc(-c2noc(Cn3nc4ccc(-c5ccccc5)nn4c3=O)n2)cc1
Reply: 17.1

Query: Next compound up: O=S(=O)(c1cccn2cnnc12)N(Cc1ccc(F)cc1)c1ccc(F)c(F)c1
Reply: 2.27

Query: Next compound up: COC(=O)c1ccccc1NC(=O)Cn1nc2c3cc(-c4ccc(OC)cc4)nn3ccn2c1=O
Reply: 0.77

Query: Next compound up: COc1cccc(CN(c2cccc(C)c2)S(=O)(=O)c2ccc3nnc(C)n3c2)c1
Reply: 0.75

Query: Next compound up: O=C(CCc1nnc2ccc(-c3ccc(Cl)cc3)nn12)NCc1ccc(F)cc1Cl
Reply: 0.76

These data points were gathered from ChEMBL document CHEMBL4513146.
